The measurements presented in this section are drawn from patent US20240368233A1.

Molecular target: T1, LHD29 chainB
T1 construct: also called LHD29B; 29B
T1 chain: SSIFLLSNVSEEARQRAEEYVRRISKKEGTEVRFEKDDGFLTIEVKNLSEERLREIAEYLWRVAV
Test: BLI, steady state fit
observationType: Kd (nM)
Numbers only, in nM.

Problem: // Kd lookup, key: LHD29 chainA (designed binder, also called LHD29A; 29A) TWQWVLINISEEARQRIEEYVRRISKKEGTEVHFEKDDGVLHIRVKNLHEKRAREIHEYAKRVIL
Solution: 310
